tested on: HEK-293T; test: Cytotoxicity against human HEK293T cells assessed as reduction in cell viability at 10 uM measured after 24 hrs by CCK8 assay; assay type: cell-based
quantity name: Activity

[[record]]
smiles_repr = "C=C1CC[C@H]2[C@@H]([C@@H]3O[C@]4(C=C3C)C[C@H](C)[C@H](OC(=O)c3ccccc3)[C@@H]4[C@H]1OC(C)=O)C2(C)C"
target_of_assay = "HEK-293T"
quantity_name = "Activity"
result = "Non-Toxic"

[[record]]
smiles_repr = "C=C1CC[C@H]2[C@@H](C[C@@H](C)C(=O)[C@@]3(OC(C)=O)C[C@H](C)[C@H](OC(=O)c4ccccc4)[C@@H]3[C@H]1OC(C)=O)C2(C)C"
target_of_assay = "HEK-293T"
quantity_name = "Activity"
result = "Non-Toxic"

[[record]]
smiles_repr = "CC(=O)O[C@]12C[C@H](C)[C@H](OC(=O)c3cccnc3)[C@@H]1[C@H]1O[C@@]1(C)CC[C@H]1[C@@H](/C=C(\\C)C2=O)C1(C)C"
target_of_assay = "HEK-293T"
quantity_name = "Activity"
result = "Non-Toxic"

